Origin of measurements: paper PMC9253517

- measurementTarget: SARS-CoV-2 Wuhan-Hu-1 RBD (SARS-CoV-2, Wuhan-Hu-1 (GenBank …, UniProt P0DTC2))
- test: BLI
- condition: both partners purified

binder | binding result
JR173 (antibody, V domains shown) VH: EVQLVESGGGLVQPGRSLRLSCAASGFTFDDYAMHWVRQAPGKGLEWVSGISWNSGRKGYADSVKGRFTISRDNAKNSLHLQMNSLRAEDTALYYCAKDIQEAIEVSSIGFDYWGQGTLVTVSS VL: QSVLTQPPSVSGAPGQRVTISCTGSSSNIGAGYDVHWYQQLPGTAPKLLIYGNSNRPSGVPDRFSGSKSGTSASLAITGLQAEDEADYYCQSYDSSLSGYAVFGGGTQLTVL | binds
JR206 (antibody, V domains shown) VH: EVQLVQSGAEVKKPGESLKISCKGSGFNFSRYWIGWVRQMPGKGLEWMGIIYLGDSDTTYSPSFQGQVTISADKSISTAYLQWSSLKASDTAMFYCATRSGYFYGYETWGQGTLVTVSS VL: SYELTQPPSVSVAPGKTAKITCGGNNIGSKTVHWYQQRPGQAPVLVVYDNRDRPSGIPERFSGSNSGNTAALTISRVEAGDEADYYCQVWDSSSDHYVFGTGTKVTVL | binds
JR039 (antibody, V domains shown) VH: QLQLQESGPGLVKPSETLSLTCTVSGGSISSSSYYWGWIRQPPGKGLEWIGSIYYSGSTYYNPSLKSRVSISVDTSKNQFSLKLSSVTAADTAVYYCARPGPAYYDRSGYYRAEYFQRWGQGTLVTVSS VL: AIRMTQSPSSLSASVGDRVTITCQASQDISDYLSWYQQKPGKAPKLLIYDASNLETGVPSRFSGSGSGTDFTFTISSLQPEDIATYYCQQYDNLPLTFGGGTKVEIK | binds
